Source listed as the RNAGym collection of RNA variant scans (doi:10.7554/elife.80360).

Each entry below carries its reported self-cleavage.
B1: HDV Ribozyme (parent)
chain: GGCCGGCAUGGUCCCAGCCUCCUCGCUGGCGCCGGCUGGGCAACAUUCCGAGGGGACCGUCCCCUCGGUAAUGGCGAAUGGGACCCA

- Variants of: B1
- measurement notes: self-cleavage, relative activity (ratio to wild type); higher = more cleavage; co-transcriptional
Give the figure only, with no unit attached.

Query string: For the variant GGCCGGCAUGGUCCCAGCCUCCUCGCUGGCGCCGGCUGGGCAACAUUCCGAGGGAACCGUCCCCUCGGUAAUUGCGAAUGGGACCCA [G55A G73U] , report self-cleavage.
Result string: 0.457

Query string: Item GGCCGGCAUGGUCCCAGCCUCCUCUCUGGCGCCGGCUGGGCAAUAUUCCGAGGGGACCGUCCCCUCGGUAAUGGCGAAUGGGACCCA [G25U C44U] : provide self-cleavage
Result string: 0.119
